test system: barnyardgrass; test: Test B pre-/postemergence herbicide test; format: in vivo, Echinochloa crus-galli; conditions: 125 g ai/ha; 0 = no effect, 100 = complete control; preemergence
MEASUREMENT KIND: Barnyardgrass plant response rating (0 to 100 scale)
In your answer, state the number alone without any accompanying words.

Prompt: Consider the compound CCn1nc(C(C)(C)C)cc1C(=S)Nc1cc(C(=S)N(C)C)ccc1F and give its recorded Barnyardgrass plant response rating (0 to 100 scale).
Completion: 80

Prompt: Tell us which Barnyardgrass plant response rating (0 to 100 scale) value is on record for CCNC(=O)c1cccc(NC(=O)c2sc(C(C)(C)C)nc2C)c1
Completion: 40

Prompt: Given the compound CCN(C)C(=O)c1ccc(F)c(NC(=O)C2CC(C(C)(C)C)=NN2CC)c1 (racemic) , write its reported Barnyardgrass plant response rating (0 to 100 scale).
Completion: 80

Prompt: Indicate the recorded Barnyardgrass plant response rating (0 to 100 scale) value for this compound: CCN(CC)C(=O)c1cc(NC(=O)c2cc(C(C)(C)C)nn2CC)c(F)cc1F
Completion: 0
